target_desc: human hNET (Homo sapiens, UniProt P23975)
Construct: expressed in transfected cells; host or cells: MDCK-Net6 (MDCK cells stably transfected with hNET)
Sequence (P23975 whole entry): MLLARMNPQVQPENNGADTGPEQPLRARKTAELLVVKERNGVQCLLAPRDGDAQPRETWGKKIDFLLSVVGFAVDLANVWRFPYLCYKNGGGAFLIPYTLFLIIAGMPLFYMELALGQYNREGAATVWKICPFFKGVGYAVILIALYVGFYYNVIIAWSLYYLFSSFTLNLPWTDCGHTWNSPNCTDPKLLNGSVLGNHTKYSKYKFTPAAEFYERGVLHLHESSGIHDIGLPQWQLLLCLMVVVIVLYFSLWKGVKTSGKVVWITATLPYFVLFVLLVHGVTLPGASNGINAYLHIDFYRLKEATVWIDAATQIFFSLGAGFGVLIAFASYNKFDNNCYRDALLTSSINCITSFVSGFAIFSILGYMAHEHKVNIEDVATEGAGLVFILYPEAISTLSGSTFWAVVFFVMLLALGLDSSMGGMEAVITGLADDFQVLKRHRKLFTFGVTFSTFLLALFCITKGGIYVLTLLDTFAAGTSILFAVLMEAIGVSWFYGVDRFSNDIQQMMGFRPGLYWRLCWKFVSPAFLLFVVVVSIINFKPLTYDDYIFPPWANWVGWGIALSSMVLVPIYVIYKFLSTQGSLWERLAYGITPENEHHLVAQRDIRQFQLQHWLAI
procedure_text: Norepinephrine (NE) uptake assay in MDCK-Net6 cells
Format: cell-based
condition_summary: 1 μM test compound; [3H]NE uptake, MDCK-Net6 cells stably transfected with hNET
Structures can show the parent of a compound that is named as a salt.
inhibition at 1 µM of 80% or higher: Condition met. Under 80%: Condition not met.

{"molecule": "OC1(C(CN2CCNCC2)c2ccccc2Br)CCCCC1 (centres unmarked) [Example 33, dihydrochloride]", "target_desc": "human hNET (Homo sapiens, UniProt P23975)", "label_value": "Condition not met"}
{"molecule": "OC1(C(CN2CCNCC2)c2ccc(F)cc2)CCC1 (centres unmarked) [Example 19, dihydrochloride]", "target_desc": "human hNET (Homo sapiens, UniProt P23975)", "label_value": "Condition not met"}
{"molecule": "OC1(C(CN2CCNCC2)c2cccc(Cl)c2)CCCCCCC1 (centres unmarked) [Example 36, dihydrochloride]", "target_desc": "human hNET (Homo sapiens, UniProt P23975)", "label_value": "Condition not met"}
{"molecule": "OC1(C(CN2CCNCC2)c2cccc(Br)c2)CCC1 (centres unmarked) [Example 27, dihydrochloride]", "target_desc": "human hNET (Homo sapiens, UniProt P23975)", "label_value": "Condition not met"}
{"molecule": "OC1(C(CN2CCNCC2)c2ccccc2F)CCCCC1 (centres unmarked) [Example 25, dihydrochloride]", "target_desc": "human hNET (Homo sapiens, UniProt P23975)", "label_value": "Condition not met"}
{"molecule": "OC1(C(CN2CCNCC2)c2ccc(Cl)c(Cl)c2)CCCCC1 (centres unmarked) [Example 6, dihydrochloride]", "target_desc": "human hNET (Homo sapiens, UniProt P23975)", "label_value": "Condition met"}
{"molecule": "C[C@H]1CN(CC(c2cccc(Cl)c2)C2(O)CCCCC2)CCN1 (some centres unmarked) [Example 4, dihydrochloride]", "target_desc": "human hNET (Homo sapiens, UniProt P23975)", "label_value": "Condition met"}

These measurements were taken from patent US7531543B2.
